Assay: budding yeast growth changes without added modifier – OD600, strain BY4716, 24 h, basal condition, primary screen (AID 1173)
Conditions: S. cerevisiae BY4716 growth, OD600, 24 h; higher = more signal, called active from +8 up or from −8 down

MOLECULE	z-score
CN1C(=O)C2C=CC(C(O)c3ccccc3)N(NC(=O)OC(C)(C)C)C2C1=O (configuration not stated)	1.34
COC(=O)c1c(CC[C@@H](CO)NC(=O)Nc2ncn[nH]2)oc(C(=O)Cc2ccccc2)c1C(=O)OC	-0.62
C=CCOC(=O)[C@@H]1[C@H]2C(=O)O[C@H](c3ccccc3)[C@H](c3ccccc3)N2[C@H](c2ccc(OCCOC(=O)[C@H]3C[C@H]4C(=O)N[C@@H](CCCC[N+](C)(C)C)C(=O)N4[C@H]3c3cccc(OCCO)c3)cc2)[C@@]12C(=O)Nc1ccc(I)cc12	1.68
O=C1c2ccccc2[C@@]2(Cc3ccccc3N(Cc3ccccc3)C2=O)[C@H](c2ccc(CO)cc2)N1Cc1ccccc1C(F)(F)F	-0.614
CCN(CC)c1ccc(N2CC=CC34O[C@@H]5/C=C\CCC(C)OC(=O)C5[C@H]3C(=O)N(CCCCCCO)[C@@H]4C2=O)cc1 (some centres not stated)	-0.0746
C[N+](C)(C)CCCC[C@@H]1NC(=O)[C@@H]2C[C@H](C(=O)NCCCCCCNC(=O)CS)[C@H](c3cccc(OCCO)c3)N2C1=O	0.159
NC(=O)[C@]1(Cc2ccccc2)N=C(c2ccc(OCCCO)cc2)O[C@@H]1c1ccccc1	-1.06
